# method notes: Cmax was evaluated in male Dawley rats at a dose of 9.9 mg/kg when taken intravenously
# Format: ADME, organism-based
# Parameters: dose 9.9 mg/kg, route intravenous
# particulars: Sprague-Dawley, rat, in vivo, iv
endpoint label: Cmax

Look at this compound and give its reported Cmax. CC(=O)NC[C@H]1CN(c2ccc(-n3ccc(C#N)c3)c(F)c2)C(=O)O1
26.1 µM

====

# method notes: Absolute oral bioavailability was evaluated n male Dawley rats at a dose of 42.9 mg/kg when taken peroral
# Format: ADME, organism-based
# particulars: Sprague-Dawley, rat, in vivo
endpoint label: bioavailability (%)
Entry rule: numbers only, all in %.

Look at this compound and give its reported bioavailability. CC(=O)NC[C@H]1CN(c2ccc(-n3ccc(C#N)c3)c(F)c2)C(=O)O1
92

====

# method notes: terminal disposition half-life was evaluated in male Dawley rats at a dose of 46.8 mg/kg when taken peroral
# Type: ADME, organism-based
# Set-up: dose 46.8 mg/kg, route oral
# particulars: Sprague-Dawley, rat, in vivo, po
endpoint label: half-life (h)
Entry rule: numbers only, all in h.

Look at this compound and give its reported half-life. CC(=O)NC[C@H]1CN(c2ccc(-n3cc(C#N)cn3)c(F)c2)C(=O)O1
5.35

====

Let's look at some molecules and their measured ED50.
# Test system: Staphylococcus aureus
# method notes: The compound was evaluated for its effective dose against Staphylococcus aureus UC 9213
# Type: functional
Entry rule: numbers only, all in mg/kg/day.

Solved cases below.
[[record]]
test_smiles = "CC(=O)NC[C@H]1CN(c2ccc(-n3cc(C#N)cn3)c(F)c2)C(=O)O1"
value_unit = "mg/kg/day"
reported_result = 1.2

[[record]]
test_smiles = "CC(=O)NC[C@H]1CN(c2ccc(-n3ccc(/C=N\\O)c3)c(F)c2)C(=O)O1"
value_unit = "mg/kg/day"
reported_result = 5.5


Now look at this entry.
What value of ED50 on Staphylococcus aureus does CC(=O)NC[C@H]1CN(c2ccc(-n3ccc(C#N)c3)c(F)c2)C(=O)O1 have?
1.9

====

Let's look at some compounds and their measured MIC.
# Tested on: Moraxella catarrhalis
# method notes: The compound was evaluated for its anti-bacterial activity against Moraxella catarrhalis UC 30610
# Format: functional
Entry rule: numbers only, all in µg/mL.

Solved cases below.
[[record]]
compound = "CC(=O)NC[C@H]1CN(c2ccc(-n3cc(C#N)cn3)c(F)c2)C(=O)O1"
endpoint_label = "MIC"
reported_result = 2

[[record]]
compound = "CC(=O)NC[C@H]1CN(c2ccc(-n3ccc(C=O)c3)c(F)c2)C(=O)O1"
endpoint_label = "MIC"
reported_result = 1

[[record]]
compound = "CC(=O)NC[C@H]1CN(c2ccc(N3CCOCC3)c(F)c2)C(=O)O1 [LINEZOLID]"
endpoint_label = "MIC"
reported_result = 8

[[record]]
compound = "CC(=O)NC[C@H]1CN(c2ccc(-n3ccc(C#N)c3)c(F)c2)C(=O)O1"
endpoint_label = "MIC"
reported_result = 1


Look at this compound and give its reported MIC. CC(=O)NC[C@H]1CN(c2ccc(-n3ccc(/C=N\O)c3)c(F)c2)C(=O)O1
1

Look at this compound and give its reported MIC. CC(=O)NC[C@H]1CN(c2ccc(N3CCN(C(=O)CO)CC3)c(F)c2)C(=O)O1 [EPEREZOLID]
8

====

# method notes: steady-state volume of distribution was evaluated in male Dawley rats
# Type: ADME, organism-based
# particulars: Sprague-Dawley, rat, in vivo, read-out: Vss
endpoint label: Vd (L/kg)
Entry rule: numbers only, all in L/kg.

Look at this molecule and give its reported Vd. CC(=O)NC[C@H]1CN(c2ccc(-n3ccc(C#N)c3)c(F)c2)C(=O)O1
0.52
